Experimental details: Plasma protein binding assay (equilibrium dialysis), monkey plasma
Assay type: in vitro ADME
Assay setup: pH 7.4, equilibrium dialysis 5 hours, read-out: Plasma protein binding rate (%) (converted)
Endpoint name: fraction unbound at 5 h, 1 μmol/L
Give the figure by itself; no unit, no explanation.

Test smiles	Endpoint name	Value measured
C=CC(=O)N1CCN(c2nc(=O)n(-c3c(C)ccnc3C(C)C)c3nc(-c4c(O)cccc4F)c(F)cc23)[C@@H](C)C1	fraction unbound at 5 h, 1 μmol/L	0.017

// recorded fraction unbound at 5 h, 1 μmol/L for `C=C(F)C(=O)N1CCN(c2nc(OC[C@@H]3CCCN3C)nc3c2CCN(c2cccc4cccc(Cl)c24)C3)C[C@@H]1CC#N` : 0.013

Data provenance: patent US20250034161A1
